Molecular target: Histone deacetylase (Eimeria tenella)
Assay: Displacement of [3H]-Apicidin A from Histone deacetylase of Eimeria tenella extract
pIC50: −log10 of the molar value.
// n strictly below 7 in pIC50; y otherwise

Study these solved cases before continuing.
CCC(=O)CCCCC[C@@H]1NC(=O)[C@H]2CCCCN2C(=O)[C@H]([C@@H](C)CC)NC(=O)[C@H](c2cnc3ccccc3c2O)NC1=O :: y
CCCn1cc(C[C@@H]2NC(=O)[C@H](CCCCCC(=O)CC)NC(=O)[C@H]3CCCCN3C(=O)[C@H]([C@@H](C)CC)NC2=O)c2ccccc21 :: y
CCC(=O)CCCCC[C@@H]1NC(=O)[C@H]2CCCCN2C(=O)[C@H]([C@@H](C)CC)NC(=O)[C@H](c2cn(CC(=O)OC)c3ccccc3c2=O)NC1=O :: n
CCC(=O)CCCCC[C@@H]1NC(=O)[C@H]2CCCCN2C(=O)[C@H]([C@@H](C)CC)NC(=O)[C@H](c2cn(CC(=O)O)c3ccccc3c2=O)NC1=O :: n

Okay, now this compound:
Query: Hello, I need to know if CCC(=O)CCCCC[C@@H]1NC(=O)[C@H]2CCCCN2C(=O)[C@H]([C@@H](C)CC)NC(=O)[C@H](Cc2cn(CC(=O)OC)c3ccccc23)NC1=O has measured pIC50 not below 7. Thanks!
Reply: y

----------
Molecular target: Histone deacetylase
Experiment: Inhibition of [3H]-Apicidin A binding to Histone deacetylase of chick liver extract
Parameters: species or system Gallus gallus
We begin with a simple list: items and their reported IC50.
Kindly provide the numeric value in µg/mL only, without the unit symbol.

Some entries whose results are on file:
CCC(=O)CCCCC[C@@H]1NC(=O)[C@H]2CCCCN2C(=O)[C@H]([C@@H](C)CC)NC(=O)[C@H](c2cn(CC(=O)OC)c3ccccc3c2=O)NC1=O :: 2
CCC(=O)CCCCC[C@@H]1NC(=O)[C@H]2CCCCN2C(=O)[C@H]([C@@H](C)CC)NC(=O)[C@H](c2cn(CC)c3ccccc3c2=O)NC1=O :: 2

Switching to the query record.
// IC50 lookup, compound = CCC(=O)CCCCC[C@@H]1NC(=O)[C@H]2CCCCN2C(=O)[C@H]([C@@H](C)CC)NC(=O)[C@H](c2cn(CC(=O)O)c3ccccc3c2=O)NC1=O , result: 5

----------
Entries and their IC50 values follow.
Target: Histone deacetylase
Assay: Tested for Histone deacetylase enzyme inhibition assay using mammalian cell nuclear extract (HeLa)
Type: protein assay, Homo sapiens
Report as a plain number; the unit µM is understood.

Below, each entry is followed by its recorded IC50 result.
CCC(=O)CCCCC[C@@H]1NC(=O)[C@H]2CCCCN2C(=O)[C@H]([C@@H](C)CC)NC(=O)[C@H](c2cn(C)c3ccccc3c2=O)NC1=O :: 0.241
CCC(=O)CCCCC[C@@H]1NC(=O)[C@H]2CCCCN2C(=O)[C@H]([C@@H](C)CC)NC(=O)[C@H](c2cn(OC)c3ccccc3c2=O)NC1=O :: 0.086

Documented IC50 of CCC(=O)CCCCC[C@@H]1NC(=O)[C@H]2CCCCN2C(=O)[C@H]([C@@H](C)CC)NC(=O)[C@H](c2cn(CC)c3ccccc3c2=O)NC1=O : 0.33

Lab note: CCCn1cc([C@@H]2NC(=O)[C@H](CCCCCC(=O)CC)NC(=O)[C@H]3CCCCN3C(=O)[C@H]([C@@H](C)CC)NC2=O)c(=O)c2ccccc21 gave IC50 of 0.23

----------
IC50: recorded values
Biological target: Histone deacetylase
Test: Inhibition of [3H]-Apicidin A binding to Histone deacetylase of chick liver extract
Set-up: species or system Gallus gallus
Please reply with the bare figure in µg/mL and do not write the unit itself.

Reference set (5 entries):
CCC(=O)CCCCC[C@@H]1NC(=O)[C@H]2CCCCN2C(=O)[C@H]([C@@H](C)CC)NC(=O)[C@H](c2cn(OC)c3ccccc3c2=O)NC1=O :: 1
CCCn1cc([C@@H]2NC(=O)[C@H](CCCCCC(=O)CC)NC(=O)[C@H]3CCCCN3C(=O)[C@H]([C@@H](C)CC)NC2=O)c(=O)c2ccccc21 :: 0.7
CCC(=O)CCCCC[C@@H]1NC(=O)[C@H]2CCCCN2C(=O)[C@H]([C@@H](C)CC)NC(=O)[C@H](c2cn(C)c3ccccc3c2=O)NC1=O :: 1
CCC(=O)CCCCC[C@@H]1NC(=O)[C@H]2CCCCN2C(=O)[C@H]([C@@H](C)CC)NC(=O)[C@H](Cc2cn(CC(=O)O)c3ccccc23)NC1=O :: 0.065
CCC(=O)CCCCC[C@@H]1NC(=O)[C@H]2CCCCN2C(=O)[C@H]([C@@H](C)CC)NC(=O)[C@H](Cc2cn(CC(=O)OC)c3ccccc23)NC1=O :: 0.005

Note to self: IC50 recorded for CCC(=O)CCCCC[C@@H]1NC(=O)[C@H]2CCCCN2C(=O)[C@H]([C@@H](C)CC)NC(=O)[C@H](c2cnc3ccccc3c2O)NC1=O was 1

----------
Each entry below carries its recorded IC50.
Molecular target: Histone deacetylase (Eimeria tenella)
Assay: Displacement of [3H]-Apicidin A from Histone deacetylase of Eimeria tenella extract
Give just the number in µM; leave the unit off.

Reference set, count: 2
CCC(=O)CCCCC[C@@H]1NC(=O)[C@H]2CCCCN2C(=O)[C@H]([C@@H](C)CC)NC(=O)[C@H](Cc2cn(CC(=O)O)c3ccccc23)NC1=O :: 0.0997
CCC(=O)CCCCC[C@@H]1NC(=O)[C@H]2CCCCN2C(=O)[C@H]([C@@H](C)CC)NC(=O)[C@H](Cc2cn(C)c3ccccc23)NC1=O :: 0.0197

Turning to the following compound.
// CCCn1cc([C@@H]2NC(=O)[C@H](CCCCCC(=O)CC)NC(=O)[C@H]3CCCCN3C(=O)[C@H]([C@@H](C)CC)NC2=O)c(=O)c2ccccc21 : IC50 value = 0.192

----------
Reported IC50 by item:
Target: Histone deacetylase
Assay: Inhibition of [3H]-Apicidin A binding to Histone deacetylase of chick liver extract
Set-up: species or system Gallus gallus
Report the value in µg/mL with no unit label.

Examples from the recorded data:
CCCn1cc(C[C@@H]2NC(=O)[C@H](CCCCCC(=O)CC)NC(=O)[C@H]3CCCCN3C(=O)[C@H]([C@@H](C)CC)NC2=O)c2ccccc21 :: 0.01
CCC(=O)CCCCC[C@@H]1NC(=O)[C@H]2CCCCN2C(=O)[C@H]([C@@H](C)CC)NC(=O)[C@H](Cc2cn(C)c3ccccc23)NC1=O :: 0.005

Please fill in: IC50 reported for CCC(=O)CCCCC[C@@H]1NC(=O)[C@H]2CCCCN2C(=O)[C@H]([C@@H](C)CC)NC(=O)[C@H](Cc2cn(CC)c3ccccc23)NC1=O = 0.01

----------
Target: Histone deacetylase (Eimeria tenella)
Experiment: Displacement of [3H]-Apicidin A from Histone deacetylase of Eimeria tenella extract
PROPERTY_MEASURED: pIC50
Quick note: pIC50 means taking -log10 of the concentration in moles per liter.

CCC(=O)CCCCC[C@@H]1NC(=O)[C@H]2CCCCN2C(=O)[C@H]([C@@H](C)CC)NC(=O)[C@H](c2cn(OC)c3ccccc3c2=O)NC1=O :: 7.20

The compound listed as CCC(=O)CCCCC[C@@H]1NC(=O)[C@H]2CCCCN2C(=O)[C@H]([C@@H](C)CC)NC(=O)[C@H](c2cn(C)c3ccccc3c2=O)NC1=O shows pIC50 equal to 7.02

pIC50 recorded for this compound, CCC(=O)CCCCC[C@@H]1NC(=O)[C@H]2CCCCN2C(=O)[C@H]([C@@H](C)CC)NC(=O)[C@H](c2cn(CC)c3ccccc3c2=O)NC1=O , is 6.96

Lab note: CCC(=O)CCCCC[C@@H]1NC(=O)[C@H]2CCCCN2C(=O)[C@H]([C@@H](C)CC)NC(=O)[C@H](Cc2cn(CC)c3ccccc23)NC1=O gave pIC50 of 6.79
